- Measured target: T1, PUF4 RNA-binding domain (Saccharomyces cerevisiae, UniProt P25339 537-888)
- T1 sequence: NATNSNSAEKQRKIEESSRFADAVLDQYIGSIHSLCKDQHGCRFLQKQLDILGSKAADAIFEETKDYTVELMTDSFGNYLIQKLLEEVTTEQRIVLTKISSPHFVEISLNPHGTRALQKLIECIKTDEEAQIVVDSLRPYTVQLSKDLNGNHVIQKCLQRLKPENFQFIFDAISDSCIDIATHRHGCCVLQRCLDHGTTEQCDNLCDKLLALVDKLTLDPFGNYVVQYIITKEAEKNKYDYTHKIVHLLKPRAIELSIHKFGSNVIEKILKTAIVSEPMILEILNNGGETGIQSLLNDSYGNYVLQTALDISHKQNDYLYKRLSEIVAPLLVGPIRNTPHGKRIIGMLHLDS
- Assay overview: Mg; RNA-MaP; 20 mM Na-HEPES pH 7.4, 30 mM KOAc, 0.75 mM MgCl2, 0.1% Tween-20, 5% glycerol, 0.1 mg/mL BSA, 2 mM DTT; 25 C; 0.0125-409.6 nM protein
- Recorded conditions: tags: N-His6-TEV cleaved; C-SNAP kept, Cy3B-labelled; label: tethered on chip by stalled RNA polymerase
Experimental readout: pKd
Please keep in mind that pKd is minus log10 of the molar concentration; only the number is needed.

Q. Param item = UCUCUUAUACACUAUAACUCUCUU (ssRNA) [Id_ii_S1_P3E.4_K3.3_C3.2_[C-2A]_H3.3_A3.1_F3.1_T3.2_[T9A]_[A10C]] ; retrieve measured pKd.
A. 7.33

Q. Please do the same for Id_ii_S2_P4E.3_K4.2_C4.2_[C-2T]_H4.2_A4.1_F4.1_T4.2_[G10C] (ssRNA) RNA: UUUGAUUAAUAUGAUAUCGUUCUUUCUUUUAUAUAUUACUUUCUUUCUCGAUAUCAUAUUAAUCUUU as well.
A. 8.44

Q. Please do the same for UCUCUUCGUAAAUUAUCUCUU (ssRNA) [Ib_S1_P4E.1_K4.1_C4.1_H4.1_[T1C]_A4.1_[T5A]_F4.1_T4.1] as well.
A. 6.86

Q. Please do the same for UCUCUUUUUAUAUUAUUACUUCUCUU (ssRNA) [Id_ii_S1_P5E.3_K5.2_C5.2_[C-2T]_H5.2_A5.1_F5.1_T5.2_[T11C]_[A12T]] as well.
A. 6.38

Q. Please do the same for Ic_S2_P4E.1_K4.1_C4.1_H4.1_A4.1_[T5A]_[A6T]_F4.1_[T8G]_[A9T]_T4.1 (ssRNA) RNA: UUUGAUUAAUAUGAUAUCGUUCUUUCUUGUAAUUGUUUCUUUCUCGAUAUCAUAUUAAUCUUU as well.
A. 6.93

Q. Please do the same for Ib_S2_P5E.1_K5.1_C5.1_H5.1_A5.1_[T5G]_F5.1_[A10G]_T5.1 (ssRNA) RNA: UUUGAUUAAUAUGAUAUCGUUCUUUCUUGUAGUAUUGUUCUUUCUCGAUAUCAUAUUAAUCUUU as well.
A. 7.07

Q. Please do the same for UCUCUUUGUACCUCCUCUCUU (ssRNA) [Ic_S1_P4E.1_K4.1_C4.1_H4.1_A4.1_[T5C]_[A6C]_F4.1_[T8C]_[A9C]_T4.1] as well.
A. 6.24

Q. Please do the same for Ic_S2_P4E.1_K4.1_C4.1_H4.1_A4.1_[T5G]_[A6T]_F4.1_[T8G]_[A9C]_T4.1 (ssRNA) RNA: UUUGAUUAAUAUGAUAUCGUUCUUUCUUGUAGUUGCUUCUUUCUCGAUAUCAUAUUAAUCUUU as well.
A. 6.23

Q. Please do the same for UCUCUUCAUAUAUAUUAGUUCUCUU (ssRNA) [Id_ii_S1_P4E.3_K4.2_C4.2_[T-1A]_H4.2_A4.1_F4.1_T4.2] as well.
A. 8.09

Q. Please do the same for Id_ii_S4_P3E.2_K3.1_C3.2_[C-2T]_H3.1_A3.1_F3.1_T3.2_[A10C] (ssRNA) RNA: UUUGACAACUGAUCGUUCUUUCUUUUGUAUAUAUCUUCUUUCUCGAUCAGUUGUCUUU as well.
A. 8.74

Q. Please do the same for ACAAACACUAUAUUAUUAUCACAAAC (ssRNA) [Id_ii_S3_P5E.3_K5.2_C5.2_[C-2A]_[T-1C]_H5.2_A5.1_F5.1_T5.2_[A12C]] as well.
A. 6.43

Q. Please do the same for ACAAACACUAUAUAUACGACAAAC (ssRNA) [Id_ii_S3_P3E.3_K3.2_C3.2_[C-2A]_[T-1C]_H3.2_A3.1_F3.1_T3.2_[T9C]_[A10G]] as well.
A. 5.98

Q. Please do the same for UCUCUUUGUAUUCUAUUAUCUCUU (ssRNA) [Ie_S1_P5E.1_K5.1_C5.1_H5.1_A5.1_[+5TC]_F5.1_T5.1] as well.
A. 8.49

Q. Please do the same for ACAAACGUUAUAUAUUACUACAAAC (ssRNA) [Id_ii_S3_P4E.3_K4.2_C4.2_[C-2G]_H4.2_A4.1_F4.1_T4.2_[G10C]] as well.
A. 7.24

Q. Please do the same for UCUCUUGUUAUUAUUAUCUCUU (ssRNA) [Ib_S1_P5E.1_K5.1_C5.1_H5.1_[T1G]_[G2T]_A5.1_F5.1_T5.1] as well.
A. 7.25

Q. Please do the same for UCUCUUUGUACCAUCUUCUCUU (ssRNA) [Ic_S1_P5E.1_K5.1_C5.1_H5.1_A5.1_[T5C]_[T6C]_F5.1_[T9C]_[A10T]_T5.1] as well.
A. 7.55

Q. Please do the same for UCUCUUUGUAGUAUGUCUCUU (ssRNA) [Ic_S1_P4E.1_K4.1_C4.1_H4.1_A4.1_[T5G]_[A6T]_[T7A]_F4.1_[A9G]_T4.1] as well.
A. 6.56

Q. Please do the same for Id_ii_S2_P3E.2_K3.1_C3.2_[T-1C]_H3.1_A3.1_F3.1_T3.2_[T9A]_[A10C] (ssRNA) RNA: UUUGAUUAAUAUGAUAUCGUUCUUUCUCCUGUAUAUAACUUCUUUCUCGAUAUCAUAUUAAUCUUU as well.
A. 8.59

Q. Please do the same for UCUCUUUGUAAACCCUCUCUU (ssRNA) [Ic_S1_P4E.1_K4.1_C4.1_H4.1_A4.1_[T5A]_[T7C]_F4.1_[T8C]_[A9C]_T4.1] as well.
A. 5.99

Q. Please do the same for Ic_S2_P5E.1_K5.1_C5.1_H5.1_A5.1_[T5G]_[T6C]_F5.1_[T8C]_[A10T]_T5.1 (ssRNA) RNA: UUUGAUUAAUAUGAUAUCGUUCUUUCUUGUAGCACUUUUCUUUCUCGAUAUCAUAUUAAUCUUU as well.
A. 7.00

Q. Please do the same for UCUCUUUGUAAUGGUUCUCUU (ssRNA) [Ic_S1_P4E.1_K4.1_C4.1_H4.1_A4.1_[T5A]_[A6T]_[T7G]_F4.1_[T8G]_[A9T]_T4.1] as well.
A. 6.12

Q. Please do the same for Ie_S2_P5E.1_K5.1_C5.1_H5.1_[+3TTC]_A5.1_F5.1_T5.1 (ssRNA) RNA: UUUGAUUAAUAUGAUAUCGUUCUUUCUUGUUUCAUUAUUAUUCUUUCUCGAUAUCAUAUUAAUCUUU as well.
A. 8.12

Q. Please do the same for Id_ii_S2_P3E.2_K3.1_C3.2_[T-1C]_H3.1_A3.1_F3.1_T3.2_[T9A]_[A10T] (ssRNA) RNA: UUUGAUUAAUAUGAUAUCGUUCUUUCUCCUGUAUAUAAUUUCUUUCUCGAUAUCAUAUUAAUCUUU as well.
A. 8.83
